Assay: relative permittivity at various frequencies (dimensionless)
Details: 283.15 K; 99 kPa; Liquid; Frequency=2 MHz; Parallel plate capacitor
# relative permittivity per entry

molecule	relative permittivity
CC(C)(C)Cl [2-chloro-2-methylpropane]	10.429
CC(C)CCl [1-chloro-2-methylpropane]	7.472
CCCCCC [hexane]	1.905
CCC(C)Cl (stereo unspecified) [2-chlorobutane]	9.323
CCCCCCC [heptane]	1.943
CCCCCl [1-chlorobutane]	7.552

###

Test: relative permittivity at various frequencies (dimensionless)
Conditions: 298.15 K; 99 kPa; Liquid; Frequency=2 MHz; Parallel plate capacitor
As shown below, each of these compounds has a reported relative permittivity value.
measure: relative permittivity

compound	obs_value
CCC(C)Cl (stereo unspecified)	8.652
CC(C)(C)Cl	9.67
CC(C)CCl	7.074
CCCCCC	1.892
CCCCCCC	1.923
CCCCCl	7.157

###

Assay: relative permittivity at various frequencies (dimensionless)
Settings: 313.15 K; 99 kPa; Liquid; Frequency=2 MHz; Parallel plate capacitor
Below: a set of entries, each annotated with reported relative permittivity.

molecule	relative permittivity
CC(C)(C)Cl	8.952
CC(C)CCl	6.657
CCCCCCC	1.902
CCCCCC	1.873
CCC(C)Cl (stereo unspecified)	8.07
CCCCCl	6.757
